subject_of_test: UniProt P32245
Sequence (P32245 whole entry): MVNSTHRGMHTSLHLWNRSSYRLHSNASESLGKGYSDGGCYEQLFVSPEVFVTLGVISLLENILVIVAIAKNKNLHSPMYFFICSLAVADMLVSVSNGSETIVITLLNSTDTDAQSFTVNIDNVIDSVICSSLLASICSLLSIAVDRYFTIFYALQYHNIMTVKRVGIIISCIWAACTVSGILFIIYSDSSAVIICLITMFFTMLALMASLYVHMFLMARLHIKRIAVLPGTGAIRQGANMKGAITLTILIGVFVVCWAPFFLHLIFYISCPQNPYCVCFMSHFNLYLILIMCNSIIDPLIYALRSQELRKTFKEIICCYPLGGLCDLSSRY
experimental_protocol: Binding affinity against human melanocortin 4 receptor (hMC4R) using [125I]- NDP-MSH as radioligand
recorded_endpoint: IC50 (nM)
Could you give me the number in nM? Just the number is fine.

### Prompt Please tell me: IC50 of C[C@H](c1ccccc1)N(CC(N)=O)C(=O)CN(C(=O)CNCCCNC(=N)N)C(c1ccccc1)c1ccccc1 , system UniProt P32245?
### Response 2100
